Where do the numbers come from? From the RNAGym collection of RNA variant scans (doi:10.7554/elife.90254).

B1: LINE1-full (parent)
chain: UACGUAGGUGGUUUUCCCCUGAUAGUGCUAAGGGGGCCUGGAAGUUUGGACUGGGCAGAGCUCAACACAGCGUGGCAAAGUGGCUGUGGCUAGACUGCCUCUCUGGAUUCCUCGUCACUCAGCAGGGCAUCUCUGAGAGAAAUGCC

Variants of: B1
Experiment: self-cleavage, relative activity (ratio to wild type); higher = more cleavage; in vitro, sequencing; the parent is a self-cleaving ribozyme
For each entry below, report its self-cleavage value.

Asked: Please list self-cleavage recorded for the variant U81A U100A
Given back: 2.09

Asked: Give self-cleavage for C38U C61G
Given back: 0.02

Asked: Determine from records and report self-cleavage for A30U A31G
Given back: 1.23

Asked: Item A42G G127A : provide self-cleavage
Given back: 1.04

Asked: Identify the reported self-cleavage for the following entry. U45A A59U
Given back: 0.6

Asked: For the variant A6G U87A , give its reported self-cleavage.
Given back: 0.17

Asked: Please list self-cleavage recorded for the variant A43G A69C
Given back: 0.13

Asked: Identify measured self-cleavage corresponding to U5C U47A
Given back: 0.92

Asked: Tell me measured self-cleavage for U5A A124G please.
Given back: 1.75

Asked: Write down self-cleavage measured for item G48A A77G
Given back: 1.73

Asked: Identify measured self-cleavage corresponding to A50C G82A
Given back: 2.06

Asked: Fill in self-cleavage for record A107G G139U
Given back: 2.42

Asked: Identify self-cleavage associated with the variant U14A U29C
Given back: 1.28

Asked: Identify measured self-cleavage corresponding to C113G C123U
Given back: 1.01

Asked: Identify measured self-cleavage corresponding to U9A A42G
Given back: 1.14

Asked: Consider the variant A6U A30U . State its measured self-cleavage.
Given back: 0.58

Asked: Look up self-cleavage of U15A A50U and report it.
Given back: 1.43

Asked: Name the recorded self-cleavage of the item A43G U143C in your answer.
Given back: 1.36

Asked: Quote self-cleavage reported for C103U U115A please.
Given back: 1.72

Asked: // Input: U29C U45C . Output its self-cleavage only.
Given back: 1.08

Asked: State its self-cleavage for this variant: C113U C128U
Given back: 1.17

Asked: Give self-cleavage for the following variant: A79G U100C
Given back: 1.46

Asked: Assign self-cleavage to the following record: U45G G88A
Given back: 0.06

Asked: Determine from records and report self-cleavage for A43G G86U
Given back: 0.03

Asked: Look up and state reported self-cleavage for G32U U143C
Given back: 1.1

Asked: Indicate its recorded self-cleavage; the variant in question is A30U U132C
Given back: 1.07

Asked: Read off the recorded self-cleavage for U85A U109G
Given back: 0.05

Asked: Consider the variant U87G C118U . State its measured self-cleavage.
Given back: 0.17

Asked: Give reported self-cleavage value for U20C C95A
Given back: 0.09

Asked: Indicate the recorded self-cleavage value for this variant: U47A A140G
Given back: 0.99

Asked: Given the variant A50U A79C , write its reported self-cleavage.
Given back: 1.3

Asked: Supply measured self-cleavage of U39G A136G in your reply.
Given back: 1.65

Asked: Give self-cleavage for A6C A129U
Given back: 0.77

Asked: Give a short answer stating reported self-cleavage for A107U A141G .
Given back: 1.52

Asked: Output self-cleavage of U12G A121U
Given back: 1.31

Asked: Return self-cleavage (reported value) for this variant: U62C A136G
Given back: 0.06

Asked: Fill in self-cleavage for record A59G A64U
Given back: 0.08

Asked: Look up and state reported self-cleavage for C16U A64G
Given back: 0.09

Asked: State its self-cleavage: G32A A69G
Given back: 0.37

Asked: Return reported self-cleavage. Input variant: C38U A79G
Given back: 1.29
